Reference for the values: patent US20160032001A1

Biological target: T1, RANKL expressed on the surface of 293 cells (UniProt O14788 1-317, limits assumed)
T1 construct: whole, on cells; also called RANKL-transfected 293 cells; cells expressing RANKL
T1 sequence (looked up): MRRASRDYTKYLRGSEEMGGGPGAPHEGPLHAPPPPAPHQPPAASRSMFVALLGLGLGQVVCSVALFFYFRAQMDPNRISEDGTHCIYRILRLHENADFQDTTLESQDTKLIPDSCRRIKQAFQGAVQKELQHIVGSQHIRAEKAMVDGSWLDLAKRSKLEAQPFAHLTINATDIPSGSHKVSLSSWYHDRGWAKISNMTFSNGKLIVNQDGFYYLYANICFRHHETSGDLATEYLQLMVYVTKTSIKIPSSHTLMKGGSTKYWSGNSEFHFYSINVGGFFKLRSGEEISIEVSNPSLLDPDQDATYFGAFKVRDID
Assay: flow cytometry (MFI) on RANKL-transfected 293 cells
EXPERIMENTAL ENDPOINT: EC50 (µg/mL)
Report only the number, with the unit µg/mL understood.

Take a look at these entries with their results.
{"BINDER": "clone 565 rabbit anti-RANKL antibody (antibody, V domains shown) VH: QEDLKESGGGLITPGGTLTLTCTGSGFSLSSDGMSWVRQAPGKGLEWIGYIYSGSSPYYANWAKGRFTISKTSSTTVDLKMTSLTTEDTATYFCARHLSGGGWYLDIWGPGTLVTVSL VL: DMIQTPASVSEPVGGTVTINCQASQNIGSNLAWYQQKPGQPSKLLIYKASTLASGVPSRFKGSGSGTDFTLTISDLECADAATYYCQQAYTISNVDNAFGGGTEVVVK", "UNIT STRING": "µg/mL", "EC50": 0.0831}
{"BINDER": "clone 480 rabbit anti-RANKL antibody (antibody, V domains shown) VH: QSLEESGGRLVTPGGSLTLTCTVSGFSLSNYEINWVRQAPGKGLEWIGYIDVGSGTWYASWAKGRFTISKTSTTVDLKITSPTTGDTATYFCSRSYNPMDLWGPGTLVTVSS VL: DMTQTPASVEVAVGGTVTIKCQASQNIGSNLAWYQQKPGQRPKLLIYSASTLASGVPSRFKGSGSGTQFTLTISGVQCDDAATYYCQQGYSVGNVNNAFGGGTEVVVK", "UNIT STRING": "µg/mL", "EC50": 0.172}
{"BINDER": "clone 415 rabbit anti-RANKL antibody (antibody, V domains shown) VH: QSVEESGGRLVTPGGSLTLTCTVSGFSLSNYEMNWVRQAPGKGLEWIGYIDVGSGTWYASWAKGRFTISKTSTTVDLKITSPTTEDTATYFCSRQYNPMDLWGPGTLVTVSS VL: DMTQTPASVEVAVGGTVTIKCQASQNIGSNLAWYQQKPGQRPKLLIYSASTLASGVPSRFKGSGSGTQFTLTISGVQCDDAATYYCQQGYSVGNVNNAFGGGTEVVVK", "UNIT STRING": "µg/mL", "EC50": 0.16}

QUERY: Would you mind telling me what EC50 value was observed for clone 416 rabbit anti-RANKL antibody (antibody, V domains shown) VH: QSVKESGGGLVTPGGTLTLTCTVSGFSLSRNAMSWVRQTPGKGLEWIGYIYSGSSPYYANWAKGRFTISRTSTTVDLKMTSLTTEDTATYFCARHVSDGGWYLDIWGPGTLVAVSL VL: DMIQTPASVEVVVGGTVTFNCQASQNIGSNLAWYQQKPGQPPKLLIYSASTLASGVPSRFKGSGSGTQFTFTISDVECTDAATYYCQQAYSISNVDNAFGGGTEVVVK ?
RESULT: 0.203

QUERY: Which value of EC50 has been reported for clone 476 rabbit anti-RANKL antibody (antibody, V domains shown) VH: QSLEESGGGLVQPEGSPTLTCTAYLIDFSRYGYMCWVRQAPGKGLEWIGCIHAGRSGRTYYANWAKGRFTISKTSSTTVTLQMTSLTAADTATYFCAKSGDSYVGYFALWGPGTLVTVSS VL: DIVMTQTPASVEAAVGGTVTIKCQASENIYNYLSWYQQKPGQPPKLLIYEASKLASGVSSRFKGSGSGTEFTLTISDLECADAATYYCQSYYDVTSHSYDNPFGGGTEVVVS in the records?
RESULT: 0.0632

QUERY: # get_value(readout='EC50', item= clone 447 rabbit anti-RANKL antibody (antibody, V domains shown) VH: QEQLKESGGGLVTPGGILTLTCTASGFSLRSNAMSWVRQAPGKGLEWIGYIYPGGAPHYASWAKGRFTISRNSTTVDLKMTSLTTEDTATYFCARHVSGGGWYLDIWGPGTLVTVSL VL: DMIQTPASVEVGVGGTVTINCQASQNIGSNLAWYQQKPGQPPKFLIYGASTLASGVSSRFKGSGSGTRFTFTISDVECTDAATYYCQQAYSVGNVDNAFGGGTEVVVK )
RESULT: 0.0617

QUERY: Returns the measured EC50 for the input binder. Input: clone 420 rabbit anti-RANKL antibody (antibody, V domains shown) VH: QEQLKESGGGLVTPGGILTLTCTASGFSLRSNAMSWVRQAPGKGLEWIGYIYPGGAPHYASWAKGRFTISRNSTTVDLKMTSLTTEDTATYFCARHVSGGGWYLDIWGPGTLVTVSL VL: DMIQTPASVEVGVGGTVTINCQASQNIGSNLAWYQQKPGQPPKFLIYGASTLASGVSSRFKGSGSGTRFTFTISDVECTDAATYYCQQAYSVGNVDNAFGGGTEVVVK
RESULT: 0.215

QUERY: I am curious: what EC50 value has been reported for clone 411 rabbit anti-RANKL antibody (antibody, V domains shown) VH: QSVEESGGRLVTPGTPLTLTCTVSGFSLSSGVVSWVRQAPGKGLEWIGYAWSGGPTYYANWAKGRFTISKSSTTVDLKITSPTTADTATYFCARGYNGMDPWGPGTLVTVSS VL: DMTQTPASVEVAVGGTVTIKCQASQNIGSNLAWYQQKPGQPPKLLIYKASTLASGVPSRFRGSGSGTEFTLAISDLECADAATYYCQQGYTTKDVVNPFGGGTEVVVK ?
RESULT: 0.108

QUERY: Consider the binder clone 547 rabbit anti-RANKL antibody (antibody, V domains shown) VH: QEQLKESGGGLVTPGGTLTLTCTASGFSLSSNGMSWVRQAPGKGLEWIGYIYSGSSPYYASWAKGRFTISKTSSTTVDLKMTSLTTEDTAKYFCARHVSGGGWYLDIWGPGTLVTVSL VL: DMIQTPASVEVAVGGTVTINCQASQSIGSNLAWYQQKPGQRPKLLIYGASTLASGVSSRVKGSGSGTQFTFTISDVECTDAATYYCQQAYSISNVDNAFGGGTEVVVK and give its measured EC50.
RESULT: 0.398

QUERY: Look up EC50 for this binder: clone 408 rabbit anti-RANKL antibody (antibody, V domains shown) VH: QSVEESGGRLVTPGTPLTLTCTVSGFSLSTDVVSWVRQAPGKGLEWIGYTWNGGATFYASWAKGRFTFSKTSTTVDLKITSPTTEDTATYFCARGYNGMDPWGPGTLVTVSS VL: DMTQTPASVEAAVGGAVTIKCQASQNIGSNLAWYHQKPGQPPKLLISKASTLASGVPSRFKGSGSGTEFTLAISDLECADAATYYCQQGYTTKNVVNPFGGGTEVVVK
RESULT: 0.0898
